I'd appreciate it if you could supply unfolding enthalpy (van 't Hoff) values for the items below.
B1: Lysozyme C, P61626 (parent)
chain: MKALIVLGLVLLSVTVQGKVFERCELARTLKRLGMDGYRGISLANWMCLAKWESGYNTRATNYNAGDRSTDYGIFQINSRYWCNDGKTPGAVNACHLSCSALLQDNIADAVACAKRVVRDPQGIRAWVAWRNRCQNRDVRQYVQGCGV

Variants of: B1
Conditions: Homo sapiens; pH 2.7; 64.9 °C; Thermal; DSC; glycine 0.05 M; reversible: yes; structure 1LZ1; whole UniProt chain shown
One number for each entry, in kcal/mol.

I have 6 variants here; please give me unfolding enthalpy (van 't Hoff) for each one.
1. I124A
2. I107A
3. I74A
4. I77G
5. I41A
6. I77A

[112, 113, 111, 110, 116, 121]

FYI, the data here is from FireProtDB (doi:10.1006/jmbi.1997.1365).
